- SYSTEM: UniProt:P37288
- Sequence (P37288 whole entry): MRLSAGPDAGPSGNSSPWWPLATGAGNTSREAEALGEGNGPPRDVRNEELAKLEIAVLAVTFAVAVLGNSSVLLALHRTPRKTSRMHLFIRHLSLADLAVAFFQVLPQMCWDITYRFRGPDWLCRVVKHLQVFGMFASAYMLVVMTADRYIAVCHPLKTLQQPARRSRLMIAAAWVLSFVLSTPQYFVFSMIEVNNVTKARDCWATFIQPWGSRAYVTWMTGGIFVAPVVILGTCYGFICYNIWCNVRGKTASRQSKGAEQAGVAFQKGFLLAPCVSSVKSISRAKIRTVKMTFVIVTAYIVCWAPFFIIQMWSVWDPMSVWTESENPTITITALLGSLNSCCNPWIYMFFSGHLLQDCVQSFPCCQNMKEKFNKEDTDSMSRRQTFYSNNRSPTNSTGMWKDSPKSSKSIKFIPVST
- PROTOCOL_DESCRIPTION: Human vasopressin V1a receptor binding assay
- REPORTED_CONDITIONS: 1321N1 cell membranes, [3H]vasopressin; read-out: Ki (nM) on hV1a cell line
RECORDED_METRIC: Ki (nM)

Some molecules with recorded Ki:
- MOLECULE: "N[C@H]1Cc2cc(Cl)ccc2-n2c(nnc2[C@H]2CC[C@H](Oc3ccccn3)CC2)C1"
  SYSTEM: "UniProt:P37288"
  Ki, nM: 2.1
- MOLECULE: "CN(C)C1Cc2cc(Cl)ccc2-n2c(nnc2N2CCC3(CC2)OCc2ccccc23)C1 (stereo not drawn)"
  SYSTEM: "UniProt:P37288"
  Ki, nM: 1
- MOLECULE: "O=C(N[C@@H]1Cc2cc(Cl)ccc2-n2c(nnc2[C@H]2CC[C@H](Oc3ccccn3)CC2)C1)C1CC(F)(F)C1"
  SYSTEM: "UniProt:P37288"
  Ki, nM: 0.4
- MOLECULE: "CC(C)NC1Cc2ccccc2-n2c(nnc2[C@H]2CC[C@H](Oc3ccccn3)CC2)C1 (stereo partly drawn)"
  SYSTEM: "UniProt:P37288"
  Ki, nM: 5
- MOLECULE: "O=C(N[C@H]1Cc2cc(Cl)ccc2-n2c(nnc2[C@H]2CC[C@H](Oc3ccccn3)CC2)C1)C1CC1"
  SYSTEM: "UniProt:P37288"
  Ki, nM: 27

(a) CC(C)(C)OC(=O)NCCN[C@@H]1Cc2cc(Cl)ccc2-n2c(nnc2[C@H]2CC[C@H](Oc3ccccn3)CC2)C1
(b) O=C(N[C@H]1Cc2cc(Cl)ccc2-n2c(nnc2[C@H]2CC[C@H](Oc3ccccn3)CC2)C1)C1CCC(F)(F)CC1
(c) O=C1Cc2cc(F)ccc2-n2c(nnc2[C@H]2CC[C@H](Oc3ccccn3)CC2)C1
// ranking: key=Ki, reverse=True Rank them, then answer with their labels in that order.
b, c, a
(b: 66 nM, c: 2.1 nM, a: 0.8 nM)

(A) Clc1ccc2c(c1)CC1(Cc3nnc([C@H]4CCN(Cc5cccnc5)C4)n3-2)OCCO1
(B) OCCN[C@@H]1Cc2cc(Cl)ccc2-n2c(nnc2[C@H]2CC[C@H](Oc3ccccn3)CC2)C1
Lab note: check whether A or B shows the higher recorded Ki. Record your answer as the label of the chosen record.
A
(A: 0.8 nM, B: 0.5 nM)
